target.entity: MMP-3CD (stromelysin-1 catalytic domain) (Homo sapiens)
Sequence (P08254 100-272 limits assumed): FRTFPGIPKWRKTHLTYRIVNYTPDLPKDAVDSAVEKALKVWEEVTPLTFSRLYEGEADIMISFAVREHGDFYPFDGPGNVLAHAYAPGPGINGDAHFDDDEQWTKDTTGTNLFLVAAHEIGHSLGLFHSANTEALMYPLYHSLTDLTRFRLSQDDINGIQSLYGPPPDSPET
readout: pIC50
The quantity pIC50 is defined as the negative base-10 logarithm of the molar concentration.

Q: For the record `O=C(O)CCC(=O)c1ccc(-c2ccc(Cl)s2)cc1` , what value of pIC50 is listed for MMP-3CD (stromelysin-1 catalytic domain) (Homo sapiens)?
A: 6.53

----------
target.entity: MMP-13CD (collagenase-3 catalytic domain) (Homo sapiens)
readout: IC50

Q: Which IC50 is reported for this compound? `O=C(O)CCC(=NO)c1ccc(-c2ccc(Cl)s2)cc1`
A: 120 nM

----------
target.entity: MMP-2CD (gelatinase A catalytic domain) (Homo sapiens, UniProt P08253)
Below, each entry is listed alongside its reported IC50.
Quick reminder: number only, in µM, skip the unit.

Q: Which IC50 is reported for this compound? `O=C(O)CCC(=O)c1ccc(-c2ccc(Cl)s2)cc1`
A: 0.0639

Q: Continue with `O=C(O)CCC(=NO)c1ccc(-c2ccc(Cl)s2)cc1`
A: 0.014

// next entry
Q: Which IC50 is reported for this compound? `O=C(O)CCC(=NO)c1ccc(-n2cccn2)cc1`
A: 1.25
